# TARGET_OR_SYSTEM: KRAS G12S (Homo sapiens, UniProt P01116, G12S)
# Construct: made in house; host or cells: E. coli, e.g. BL21 (DE3)
# Sequence (P01116 1-188 isoform P01116-2 G12S): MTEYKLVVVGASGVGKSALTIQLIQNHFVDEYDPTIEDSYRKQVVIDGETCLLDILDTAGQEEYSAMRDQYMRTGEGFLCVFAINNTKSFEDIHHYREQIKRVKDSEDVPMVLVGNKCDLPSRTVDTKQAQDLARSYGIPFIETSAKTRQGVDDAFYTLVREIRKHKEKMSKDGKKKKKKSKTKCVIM
# TEST_METHOD_NOTES: HTRF assay, KRAS G12S interaction with SOS1
# Assay type: biochemical
# TEST_PARAMETERS: bins <500 nM / 500 nM to 1000 nM, read-out: Inhibition of KRAS G12S (IC50)
QUANTITY_MEASURED: IC50

Recorded IC50, per entry:
CCN(c1nc(OC[C@@]23CCCN2C[C@H](F)C3)nc2c(F)c(-c3cccc4sc(N)c(C#N)c34)c(Cl)cc12)[C@@H]1CCN(C(=O)n2cc(C#N)nc2C)[C@@H]1C : < 500 nM
CCN(c1nc(OC[C@@]23CCCN2C[C@H](F)C3)nc2c(F)c(-c3ccc(F)c4sc(N)c(C#N)c34)c(Cl)cc12)[C@@H]1CCN(C(=O)n2cnc(C#N)c2C)[C@@H]1C : < 500 nM

Q: In one line, give reported IC50 of the entry `CCN(c1nc(OCC2(CN3CC4CCC(C3)O4)CC2)nc2c(F)c(-c3ccc(F)c4sc(N)c(C#N)c34)c(C(F)(F)F)cc12)[C@@H]1CCN(C(=O)n2cnc(Cl)n2)[C@@H]1C` .
Ans: < 500 nM

---

compounds and their reported pIC50
# TARGET_OR_SYSTEM: KRAS G12S (Homo sapiens, UniProt P01116, G12S)
# Construct: made in house; host or cells: E. coli, e.g. BL21 (DE3)
# TEST_METHOD_NOTES: HTRF assay, KRAS G12S interaction with SOS1
# Assay type: biochemical
# TEST_PARAMETERS: bins <500 nM / 500 nM to 1000 nM, read-out: Inhibition of KRAS G12S (IC50)
pIC50: −log10 of the molar value.

Some compounds with recorded pIC50:
CC1C(N(C)c2nc(OC[C@@]34CCCN3C[C@H](F)C4)nc3c(F)c(-c4ccc(F)c5sc(N)c(C#N)c45)c(Cl)cc23)CCCN1C(=O)n1ccnc1 (some centres unmarked) : > 6.30
Cc1cn(C(=O)N2CC[C@@H](N(C)c3nc(OC[C@@]45CCCN4C[C@H](F)C5)nc4c(F)c(-c5ccc(F)c6sc(N)c(C#N)c56)c(Cl)cc34)[C@H]2C)cn1 : > 6.30
C[C@@H]1[C@H](N(C)c2nc(OC[C@@]34CCCN3C[C@H](F)C4)nc3c(F)c(-c4ccc(F)c5sc(N)c(C#N)c45)c(Cl)cc23)CCN1C(=O)n1ccnc1 : > 6.30
CN(c1nc(OC[C@@]23CCCN2C[C@H](F)C3)nc2c(F)c(-c3ccc(F)c4sc(N)c(C#N)c34)c(Cl)cc12)[C@@H]1CCN(C(=O)n2ccnc2)C1 : > 6.30

Q: Retrieve pIC50 measured for `Cc1c(C#N)ncn1C(=O)N1C[C@]2(CCCCN(c3nc(OC[C@@]45CCCN4C[C@H](F)C5)nc4c(F)c(-c5ccc(F)c6sc(N)c(C#N)c56)c(Cl)cc34)C2)[C@H]1C` and print it.
Ans: > 6.30

---

# TARGET_OR_SYSTEM: KRAS G12D (Homo sapiens, UniProt P01116, G12D)
# Construct: made in house; host or cells: E. coli, e.g. BL21 (DE3)
# Sequence (P01116 1-188 isoform P01116-2 G12D): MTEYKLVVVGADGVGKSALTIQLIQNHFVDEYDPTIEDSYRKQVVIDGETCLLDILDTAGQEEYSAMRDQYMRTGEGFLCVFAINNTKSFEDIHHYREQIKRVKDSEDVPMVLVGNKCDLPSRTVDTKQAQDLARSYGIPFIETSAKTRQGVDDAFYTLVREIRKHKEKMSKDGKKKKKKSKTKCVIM
# TEST_METHOD_NOTES: HTRF assay, KRAS G12D interaction with SOS1
# Type: biochemical
# TEST_PARAMETERS: bins <500 nM / 500 nM to 1000 nM, read-out: Inhibition of KRAS G12D (IC50)
pIC50: −log10 of the molar value.
QUANTITY_MEASURED: pIC50

Please review the following examples before continuing.
Cc1c(C#N)ncn1C(=O)N1CC[C@@H](N(C)c2nc(OC[C@@]34CCCN3C[C@H](F)C4)nc3c(F)c(-c4ccc(F)c5sc(N)c(C#N)c45)c(Cl)cc23)[C@H]1C : > 6.30
CCN(c1nc(OC[C@@]23CCCN2C[C@H](F)C3)nc2c(F)c(-c3ccc(F)c4sc(N)c(C#N)c34)c(Cl)cc12)[C@@H]1CCN(C(=O)n2ccc(C#N)n2)[C@@H]1C : > 6.30

Please look at the following compound next.
Q: Consider the compound `CCN(c1nc(OC[C@@]23CCCN2C[C@H](F)C3)nc2c(F)c(-c3ccc(F)c4sc(N)c(C#N)c34)c(C(F)(F)F)cc12)[C@@H]1CCN(C(=O)n2cnc(C)c2C)[C@@H]1C` . State its measured pIC50.
Ans: > 6.30
